# SETUP CONDITIONS: human gut metagenome, 24 h, 2 µM; also: call rule not given here
TEST READOUT: Bacterial Biotransformation

Consider the reported Bacterial Biotransformation for these compounds:
O=c1n(CCCN2CCN(c3cccc(Cl)c3)CC2)nc2ccccn12 = Compound metabolized
Br.CN(C)CCCC1(c2ccc(F)cc2)OCc2cc(C#N)ccc21 (centres undefined) [CITALOPRAM HYDROBROMIDE] = Compound metabolized
CN(C)C(=O)C(CCN1CCC(O)(c2ccc(Cl)cc2)CC1)(c1ccccc1)c1ccccc1 [LOPERAMIDE] = Compound metabolized
CS(=O)(=O)O.O.O.O.O=C1Cc2cc(CCN3CCN(c4nsc5ccccc45)CC3)c(Cl)cc2N1 [ZIPRASIDONE MESYLATE] = Compound NOT metabolized
Nc1nc2ccc(OC(F)(F)F)cc2s1 = Compound metabolized

Please look at the following compound next.
Q: Could you tell me which Bacterial Biotransformation is on file for CCCc1nc2c(C)cc(-c3nc4ccccc4n3C)cc2n1Cc1ccc(-c2ccccc2C(=O)O)cc1 ?
Ans: Compound metabolized

====

# SETUP CONDITIONS: human gut metagenome, 24 h, 2 µM
TEST READOUT: Bacterial Biotransformation

CCN(CC)CCNC(=O)c1cc(Cl)c(N)cc1OC [METOCLOPRAMIDE] = Compound NOT metabolized
CN1C(=O)CC(C)(c2ccccc2)C1=O (centres undefined) [METHSUXIMIDE] = Compound NOT metabolized
N#Cc1ccc(C(c2ccc(C#N)cc2)n2cncn2)cc1 = Compound NOT metabolized
COc1ccc2[nH]c([S+]([O-])Cc3ncc(C)c(OC)c3C)nc2n1 (centres undefined) = Compound NOT metabolized

====

# SETUP CONDITIONS: human gut metagenome, 24 h, 2 µM
TEST READOUT: Bacterial Biotransformation

Here are 4 compounds together with their reported answers.
C[C@@H]1CC[C@H]2[C@@H](C)C(=O)O[C@@H]3O[C@@]4(C)CC[C@@H]1[C@]32OO4 = Compound NOT metabolized
Cc1ccc(-c2cc(C(F)(F)F)nn2-c2ccc(S(N)(=O)=O)cc2)cc1 = Compound NOT metabolized
CN(C)CCC=C1c2ccccc2C=Cc2ccccc21 = Compound metabolized
CCCCC1=NC2(CCCC2)C(=O)N1Cc1ccc(-c2ccccc2-c2nnn[nH]2)cc1 = Compound metabolized

// below: Bacterial Biotransformation requested for another compound
Q: Give its Bacterial Biotransformation value. Item: NC(=O)N1c2ccccc2CC(=O)c2ccccc21 [OXCARBAZEPINE]
Ans: Compound NOT metabolized

====

# SETUP CONDITIONS: human gut metagenome, 24 h, 2 µM
TEST READOUT: Bacterial Biotransformation

Example entries and their recorded answers appear below.
CCCc1nc(C(C)(C)O)c(C(=O)OCc2oc(=O)oc2C)n1Cc1ccc(-c2ccccc2-c2nnn[nH]2)cc1 = Compound NOT metabolized
CC(=O)OCC(=O)[C@@]12N=C(C)O[C@@H]1C[C@H]1[C@@H]3CCC4=CC(=O)C=C[C@]4(C)[C@H]3[C@@H](O)C[C@@]12C = Compound metabolized
COc1ccccc1OCC(O)COC(N)=O (stereo not given) = Compound NOT metabolized
CN(C)C(=O)C(CCN1CCC(O)(c2ccc(Cl)cc2)CC1)(c1ccccc1)c1ccccc1 [LOPERAMIDE] = Compound metabolized
Cc1ccc(S(=O)(=O)NC(=O)NN2CC3CCCC3C2)cc1 (stereo not given) [GLICLAZIDE] = Compound metabolized

Q: What does the record list as Bacterial Biotransformation for CC(C)c1nc(CN(C)C(=O)N[C@H](C(=O)N[C@@H](Cc2ccccc2)C[C@H](O)[C@H](Cc2ccccc2)NC(=O)OCc2cncs2)C(C)C)cs1 ?
Ans: Compound NOT metabolized

Q: How about this compound: CCOC(=O)[C@H](CCc1ccccc1)N[C@H]1CCc2ccccc2N(CC(=O)O)C1=O
Ans: Compound metabolized

Q: Next compound: O=C1[C@H](CC[C@H](O)c2ccc(F)cc2)[C@@H](c2ccc(O)cc2)N1c1ccc(F)cc1
Ans: Compound NOT metabolized

Q: Request: CC(=O)CC(c1ccccc1)c1c(O)c2ccccc2oc1=O (stereo not given)
Ans: Compound metabolized

Q: Please give the result for c1ccc([C@H]2CN3CCSC3=N2)cc1 too.
Ans: Compound metabolized

====

# SETUP CONDITIONS: human gut metagenome, 24 h, 2 µM
TEST READOUT: Bacterial Biotransformation

Here are 10 compounds together with their reported answers.
Cc1nc2n(c(=O)c1CCN1CCC(c3noc4cc(F)ccc34)CC1)CCCC2 = Compound metabolized
CC(C)c1nc(CN(C)C(=O)N[C@H](C(=O)N[C@@H](Cc2ccccc2)C[C@H](O)[C@H](Cc2ccccc2)NC(=O)OCc2cncs2)C(C)C)cs1 = Compound metabolized
Cc1ccc(S(=O)(=O)NC(=O)NN2CCCCCC2)cc1 [TOLAZAMIDE] = Compound metabolized
CC(CN(C)C)CN1c2ccccc2CCc2ccccc21.O=C(O)/C=C\C(=O)O (stereo unspecified) [TRIMIPRAMINE MALEATE] = Compound metabolized
OC(CCN1CCCCC1)(c1ccccc1)C1CC2C=CC1C2 (stereo unspecified) = Compound NOT metabolized
CC(C)NCC(O)c1ccc(NS(C)(=O)=O)cc1 (stereo unspecified) = Compound NOT metabolized
CN1CCC(=C2c3ccccc3CCc3cccnc32)CC1.O=C(O)/C=C\C(=O)O.O=C(O)/C=C\C(=O)O [AZATADINE MALEATE] = Compound NOT metabolized
COCCc1ccc(OCC(O)CNC(C)C)cc1.COCCc1ccc(OCC(O)CNC(C)C)cc1.O=C(O)C(O)C(O)C(=O)O (stereo unspecified) [METOPROLOL TARTRATE] = Compound NOT metabolized
CC(C)c1c(C(=O)Nc2ccccc2)c(-c2ccccc2)c(-c2ccc(F)cc2)n1CC[C@@H](O)C[C@@H](O)CC(=O)O = Compound NOT metabolized
CN1CCN(C(=O)O[C@H]2c3nccnc3C(=O)N2c2ccc(Cl)cn2)CC1 = Compound NOT metabolized

Q: Please report the recorded Bacterial Biotransformation for CN1CCc2cccc3c2[C@H]1Cc1ccc(O)c(O)c1-3 .
Ans: Compound NOT metabolized

Q: Now try CCc1nn(CCCN2CCN(c3cccc(Cl)c3)CC2)c(=O)n1CCOc1ccccc1 .
Ans: Compound metabolized

====

# SETUP CONDITIONS: human gut metagenome, 24 h, 2 µM
TEST READOUT: Bacterial Biotransformation

O=C1NCC2(CCN(CCc3ccccc3)CC2)O1 [FENSPIRIDE] = Compound NOT metabolized
O=c1n(CCCN2CCN(c3cccc(Cl)c3)CC2)nc2ccccn12 = Compound NOT metabolized
COc1ccc2c(c1OC)C(=O)O[C@@H]2[C@H]1c2c(cc3c(c2OC)OCO3)CCN1C = Compound NOT metabolized
CC(C)(C#N)c1cc(Cn2cncn2)cc(C(C)(C)C#N)c1 = Compound NOT metabolized
CC(CN1c2ccccc2Sc2ccccc21)N(C)C (centres undefined) = Compound NOT metabolized

Q: So what does the record say about Bacterial Biotransformation for CCN(CC)CC#CCOC(=O)C(O)(c1ccccc1)C1CCCCC1.Cl (centres undefined) [OXYBUTYNIN CHLORIDE] ?
Ans: Compound metabolized

Q: // same read-out, input: N#Cc1ccc(C(c2ccc(C#N)cc2)n2cncn2)cc1
Ans: Compound NOT metabolized

Q: Same question for OCCN1CCN(CCCN2c3ccccc3Sc3ccc(C(F)(F)F)cc32)CC1 please.
Ans: Compound metabolized

Q: Moving on to CC(=O)CC(c1ccccc1)c1c(O)c2ccccc2oc1=O (centres undefined)
Ans: Compound metabolized

====

# TEST NAME: The drug is tested on WLS-038 corresponding to human gut metagenome with ENA study accession number: PRJEB37062 and ENA sample accession number: ERS12561745 for biotransformation under anaerobic condition. The drug concentrations were measured over 9 timepoints collected between 0 and 24 hours of incubation by liquid-chromatography-coupled mass spectrometry (LC–MS)
# SETUP CONDITIONS: 2 µM
TEST READOUT: Bacterial Biotransformation

CNC(=C[N+](=O)[O-])NCCSCc1csc(CN(C)C)n1 = Compound NOT metabolized
Nc1ccc(/N=N/c2ccccc2)c(N)n1 = Compound metabolized
CCCC1O[C@@H]2C[C@H]3[C@@H]4CCC5=CC(=O)C=C[C@]5(C)[C@H]4[C@@H](O)C[C@]3(C)[C@]2(C(=O)CO)O1 (stereo not given in full) [BUDESONIDE] = Compound metabolized
COC(=O)Nc1nc2ccc(C(=O)c3ccccc3)cc2[nH]1 = Compound metabolized
CCCCC1=NC2(CCCC2)C(=O)N1Cc1ccc(-c2ccccc2-c2nnn[nH]2)cc1 = Compound metabolized
CC(C)(C)NC[C@H](O)COc1ccccc1C1CCCC1.CC(C)(C)NC[C@H](O)COc1ccccc1C1CCCC1.O=S(=O)(O)O [PENBUTOLOL SULFATE] = Compound metabolized

Q: Please look up its Bacterial Biotransformation: COc1ccccc1OCC(O)CN1CCN(CC(=O)Nc2c(C)cccc2C)CC1 (stereo not given)
Ans: Compound NOT metabolized

Q: Please do the same for CCCc1nc(C(C)(C)O)c(C(=O)OCc2oc(=O)oc2C)n1Cc1ccc(-c2ccccc2-c2nnn[nH]2)cc1 as well.
Ans: Compound metabolized

Q: Next record, please: NC(=O)N1c2ccccc2CC(=O)c2ccccc21 [OXCARBAZEPINE]
Ans: Compound NOT metabolized

Q: Likewise for COc1ccc2c3c1O[C@H]1C[C@@H](O)C=C[C@@]31CCN(C)C2 ?
Ans: Compound NOT metabolized

Provenance of the data: ChEMBL document CHEMBL5724914
